- Read-out: Urokinase-type plasminogen activator receptor (uPAR), PLAUR (gene 5329)
- assay: BSK_CASM3C_uPAR: BioMAP Diversity Plus: CASM3C Assay for Urokinase-type plasminogen activator receptor (uPAR) Biomarker Activity (AID 2283054);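 also: cell-surface uPAR protein level quantified by ELISA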
- condition details: primary human coronary artery smooth muscle cells; actives raise or lower the signal
Activity calls are given as the source filed them. The calls were made as follows: active = hit-call score of the fitted dose curve at least 0.9, where 1 is the maximum; inactive = score below 0.9.
Labels: t = active, f = inactive

1) COc1ccc2cc(S(=O)(=O)N[C@H](CC(=O)N[C@H](Cc3ccc(CN4[C@H](C)CCC[C@@H]4C)cc3)C(=O)N(C)C(C)C)c3ccc4c(c3)OCO4)ccc2c1 ... f
2) CO[C@H]1/C=C/O[C@@]2(C)Oc3c(C)c(O)c4c(O)c(c(/C=N/N5CCN(C)CC5)c(O)c4c3C2=O)NC(=O)/C(C)=C\C=C\[C@H](C)[C@H](O)[C@@H](C)[C@@H](O)[C@@H](C)[C@H](OC(C)=O)[C@@H]1C ... f
3) CCCCCc1ccc(N)cc1 ... f
4) O=C(OCCCCCCOC(=O)c1ccccc1)c1ccccc1 ... f
5) Cc1occc1C(=O)Nc1ccc(C(=O)N2CCC(F)(F)/C(=C\C(=O)N3CCC(N4CCCCC4)CC3)c3ccccc32)cc1 ... f
6) COCC(C)OCC(C)OCC(C)O (stereo unspecified) ... f
7) NC(=O)c1nc(-c2cccc(-c3cc(F)ccc3OCC(F)(F)C(F)(F)F)c2)n[nH]1 ... t
8) O=C1O[C@H]([C@@H](O)CO)C(O)=C1O ... f
9) Cc1oc2c(NC(=O)c3c(Cl)cccc3Cl)cccc2c1C(C)(C)O ... f
10) OCCO ... f
11) CC(C)(O)c1ccc(CNC(=O)c2cccnc2Oc2ccc3nonc3c2)cc1 ... f

###

- Read-out: Broad substrate specificity ATP-binding cassette transporter ABCG2 (Homo sapiens) (UniProt Q9UNQ0)
- Sequence (Q9UNQ0 whole entry, looked up): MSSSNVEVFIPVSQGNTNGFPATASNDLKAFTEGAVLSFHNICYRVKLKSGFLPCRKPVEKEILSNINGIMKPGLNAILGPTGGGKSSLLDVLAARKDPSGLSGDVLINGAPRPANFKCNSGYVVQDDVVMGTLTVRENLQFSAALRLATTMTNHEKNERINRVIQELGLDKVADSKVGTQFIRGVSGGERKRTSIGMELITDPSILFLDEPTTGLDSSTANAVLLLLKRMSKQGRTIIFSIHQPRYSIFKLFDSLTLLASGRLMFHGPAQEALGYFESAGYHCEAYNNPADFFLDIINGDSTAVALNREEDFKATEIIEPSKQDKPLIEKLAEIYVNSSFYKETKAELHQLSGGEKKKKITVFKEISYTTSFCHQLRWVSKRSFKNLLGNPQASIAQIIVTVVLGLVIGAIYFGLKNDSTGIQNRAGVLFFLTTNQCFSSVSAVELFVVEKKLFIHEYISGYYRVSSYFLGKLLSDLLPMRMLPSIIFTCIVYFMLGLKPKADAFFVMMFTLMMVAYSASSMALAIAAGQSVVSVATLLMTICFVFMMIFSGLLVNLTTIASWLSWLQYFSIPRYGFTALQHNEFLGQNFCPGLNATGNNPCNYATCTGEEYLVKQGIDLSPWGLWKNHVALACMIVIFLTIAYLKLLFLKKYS
- assay: LTEA_HepaRG_ABCG2: Life Technologies and Expression Analysis (LTEA) Assay for ABC Transporter (ABCG2) using HepaRG (AID 2283465)
- condition details: mRNA level, 48 h; actives raise or lower the signal
Activity calls are given as the source filed them. How the source made its calls: active means hit-call score of the fitted dose curve at least 0.9, where 1 is the maximum; inactive means score below 0.9.
Outcomes: Yes (active), No (inactive)

1) CC(C)(C)c1csc(-c2cc3cc(OCc4ccccc4CC(=O)O)ccc3o2)n1 ... Yes
2) Cc1cc(F)ccc1-c1cc(N2CC[C@@H](O)[C@H]2CO)ncc1N(C)C(=O)C(C)(C)c1cc(C(F)(F)F)cc(C(F)(F)F)c1 ... Yes
3) Oc1ccccc1 ... No
4) CC(C)(O)c1ccc(CNC(=O)c2cccnc2Oc2ccc3nonc3c2)cc1 ... No
5) CC(C)(C)c1cc(/C=C2\SC(N)=NC2=O)cc(C(C)(C)C)c1O ... No
6) COc1ccc2cc(S(=O)(=O)N[C@H](CC(=O)N[C@H](Cc3ccc(CN4[C@H](C)CCC[C@@H]4C)cc3)C(=O)N(C)C(C)C)c3ccc4c(c3)OCO4)ccc2c1 ... No
7) O=C1c2ccccc2C(=O)N1CCc1noc(-c2ccc(CN3CCCCCC3)s2)n1 ... No
8) O=c1ccc2ccccc2o1 ... No

###

- Read-out: Nuclear factor NF-kappa-B p105 subunit (Homo sapiens) (UniProt P19838)
- Sequence (P19838 whole entry, looked up): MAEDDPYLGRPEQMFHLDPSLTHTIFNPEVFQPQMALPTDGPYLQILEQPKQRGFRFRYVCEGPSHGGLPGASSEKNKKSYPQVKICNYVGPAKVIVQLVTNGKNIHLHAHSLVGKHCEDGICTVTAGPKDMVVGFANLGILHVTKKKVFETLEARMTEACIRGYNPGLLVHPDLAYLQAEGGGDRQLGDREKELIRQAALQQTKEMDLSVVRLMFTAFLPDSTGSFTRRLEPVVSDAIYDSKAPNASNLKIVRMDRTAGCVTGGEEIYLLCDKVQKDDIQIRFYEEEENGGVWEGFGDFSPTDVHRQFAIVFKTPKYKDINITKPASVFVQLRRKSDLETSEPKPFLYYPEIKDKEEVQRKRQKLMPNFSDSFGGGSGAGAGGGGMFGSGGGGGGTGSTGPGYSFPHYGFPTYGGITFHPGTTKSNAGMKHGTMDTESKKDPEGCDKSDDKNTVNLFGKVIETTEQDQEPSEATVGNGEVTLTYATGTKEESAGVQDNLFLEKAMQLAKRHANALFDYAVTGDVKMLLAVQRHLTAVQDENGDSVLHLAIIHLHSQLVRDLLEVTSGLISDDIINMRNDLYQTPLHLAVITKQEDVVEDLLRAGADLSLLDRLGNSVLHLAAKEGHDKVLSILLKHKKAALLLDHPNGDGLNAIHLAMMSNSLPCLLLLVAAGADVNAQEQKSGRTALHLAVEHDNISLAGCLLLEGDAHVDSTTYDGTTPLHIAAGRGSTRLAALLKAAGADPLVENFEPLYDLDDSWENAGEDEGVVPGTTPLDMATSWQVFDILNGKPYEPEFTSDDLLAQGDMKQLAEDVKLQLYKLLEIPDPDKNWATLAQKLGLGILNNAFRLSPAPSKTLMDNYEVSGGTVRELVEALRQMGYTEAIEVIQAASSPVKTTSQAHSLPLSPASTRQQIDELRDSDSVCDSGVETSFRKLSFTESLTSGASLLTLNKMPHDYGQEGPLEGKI
- assay: LTEA_HepaRG_NFKB1: Life Technologies and Expression Analysis (LTEA) Assay for Nuclear Factor Kappa B Subunit 1 (NFKB1) using HepaRG (AID 2283521);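 as to Outcome: differentiated human HepaRG liver cells in serum-free induction medium; TaqMan qRT-PCR transcript normalised to ACTB GAPDH and POLR2A housekeeping genes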
- condition details: mRNA level, 48 h; actives raise or lower the signal
The source made the active and inactive calls. Rule for the calls: active = hit-call score of the fitted dose curve at least 0.9, where 1 is the maximum; inactive = score below 0.9.
Outcome codes: active, inactive

1. O=C1CCC(C2CCCCC2)CC1 ... inactive
2. CC[C@H](NC(=O)c1cc(F)ccc1NS(=O)(=O)c1cccc2cccnc12)c1ccccc1 ... inactive
3. CCN(Cc1cccc(S(=O)(=O)O)c1)c1ccc(C(=C2C=CC(=[N+](CC)Cc3cccc(S(=O)(=O)O)c3)C=C2)c2ccccc2S(=O)(=O)[O-])cc1 ... inactive
4. CO[C@H]1/C=C/O[C@@]2(C)Oc3c(C)c(O)c4c(O)c(c(/C=N/N5CCN(C)CC5)c(O)c4c3C2=O)NC(=O)/C(C)=C\C=C\[C@H](C)[C@H](O)[C@@H](C)[C@@H](O)[C@@H](C)[C@H](OC(C)=O)[C@@H]1C ... inactive
5. CCCCCCCCOC(=O)c1cc(O)c(O)c(O)c1 ... inactive
6. NC(=O)c1nc(-c2cccc(-c3cc(F)ccc3OCC(F)(F)C(F)(F)F)c2)n[nH]1 ... active
7. O=C=NCCCCCCN=C=O ... inactive
8. O=C(O)c1ccccc1C(=O)OCc1ccccc1 ... inactive
9. COc1cccc([C@H](O)C2CCN(CCc3ccc(F)cc3)CC2)c1OC ... inactive
